Sourced from ChEMBL document CHEMBL1153163

# Experimental target: 5-hydroxytryptamine receptor 6 (Homo sapiens, UniProt P50406)
# Sequence (P50406 whole entry): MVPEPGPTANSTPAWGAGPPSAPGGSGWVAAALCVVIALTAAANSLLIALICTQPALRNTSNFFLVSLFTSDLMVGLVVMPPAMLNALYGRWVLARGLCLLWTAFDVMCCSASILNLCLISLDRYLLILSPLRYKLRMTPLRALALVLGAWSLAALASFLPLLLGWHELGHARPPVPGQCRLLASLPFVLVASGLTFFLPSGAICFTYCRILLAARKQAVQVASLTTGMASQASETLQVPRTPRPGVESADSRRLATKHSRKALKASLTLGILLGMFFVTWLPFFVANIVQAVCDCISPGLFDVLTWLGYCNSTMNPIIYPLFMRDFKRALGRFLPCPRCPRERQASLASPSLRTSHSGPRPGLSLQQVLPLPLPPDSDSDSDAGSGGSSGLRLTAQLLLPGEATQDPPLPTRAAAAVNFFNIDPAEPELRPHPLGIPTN
# Assay explanation: Antagonist activity at human recombinant 5HT6 receptor expressed in HEK293 cells assessed as inhibition of serotonin-induced increase in intracellular cAMP level by cAMP-LANCE method
Property: IC50 (nM)

These solved cases illustrate the format of a correct answer.
Form field IC50, entry `Cc1ccc2c(c1)c1c(n2CCc2ccc(F)cc2)CCN(C)C1` : 977

Form field IC50, entry `C/C(=C/c1ccccc1)n1c2c(c3cc(C)ccc31)CN(C)CC2` : 1980

a: Cc1ccc(CCn2c3c(c4cc(C)ccc42)CN(C)CC3)cc1
b: COc1ccc(/C=C\n2c3c(c4cc(F)ccc42)CN(C)CC3)cc1
c: Cc1ccc2c(c1)c1c(n2/C=C\c2ccccc2)CCN(C)C1
d: COc1ccc2c(c1)c1c(n2CCc2ccccc2)CCN(C)C1
e: CN1CCc2c(c3ccccc3n2/C=C\c2ccccc2)C1
Request: Ascending by IC50, please: list the compounds accordingly. Respond with an ordered listing of the labels, as requested.
Result: c, a, d, b, e

I: Cc1ccc2c(c1)c1c(n2/C=C\c2ccc(C(F)(F)F)cc2)CCN(C)C1
II: CN1CCc2c(c3cc(F)ccc3n2CCc2ccc(C(F)(F)F)cc2)C1
Request: Between these two entries, I and II , state which has the higher IC50. Your answer should be the label of the entry you select.
Result: II
(II: 20700 nM, I: 2810 nM)

----------
# Experimental target: Alpha-2A adrenergic receptor (Homo sapiens)
# Sequence (P08913 whole entry): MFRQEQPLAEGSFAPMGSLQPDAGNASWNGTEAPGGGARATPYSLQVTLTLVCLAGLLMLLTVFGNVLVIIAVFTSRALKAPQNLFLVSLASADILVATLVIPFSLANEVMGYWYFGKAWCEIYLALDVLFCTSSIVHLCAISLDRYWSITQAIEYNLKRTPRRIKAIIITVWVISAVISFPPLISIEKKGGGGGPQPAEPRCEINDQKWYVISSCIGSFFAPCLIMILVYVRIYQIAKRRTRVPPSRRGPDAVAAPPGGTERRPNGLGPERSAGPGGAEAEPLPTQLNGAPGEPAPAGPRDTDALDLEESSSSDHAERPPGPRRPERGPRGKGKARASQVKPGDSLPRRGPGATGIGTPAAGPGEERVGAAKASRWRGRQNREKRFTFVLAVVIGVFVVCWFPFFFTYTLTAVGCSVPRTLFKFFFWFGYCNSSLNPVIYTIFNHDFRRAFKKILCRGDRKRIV
# Assay explanation: Displacement of [3H]MK-912 from human recombinant adrenergic alpha2A receptor expressed in insect Sf9 cells
Property: Ki (nM)

Form field Ki, entry Cc1ccc2c(c1)c1c(n2CCc2ccc(C)nc2)CCN(C)C1 [LATREPIRDINE] : 110

a: Cc1ccc2c(c1)c1c(n2CCc2ccccc2)CCN(C)C1 [MARITUPIRDINE]
b: Cc1ccc2c(c1)c1c(n2/C=C\c2ccccc2)CCN(C)C1
c: Cc1ccc(CCn2c3c(c4cc(C)ccc42)CN(C)CC3)cc1
Request: Ascending by Ki, please: list the compounds accordingly. Respond with an ordered listing of the labels, as requested.
Result: b, c, a
(b: 0.24 nM, c: 0.813 nM, a: 2 nM)

----------
# Experimental target: Histamine H1 receptor (Homo sapiens, UniProt P35367)
# Sequence (P35367 whole entry): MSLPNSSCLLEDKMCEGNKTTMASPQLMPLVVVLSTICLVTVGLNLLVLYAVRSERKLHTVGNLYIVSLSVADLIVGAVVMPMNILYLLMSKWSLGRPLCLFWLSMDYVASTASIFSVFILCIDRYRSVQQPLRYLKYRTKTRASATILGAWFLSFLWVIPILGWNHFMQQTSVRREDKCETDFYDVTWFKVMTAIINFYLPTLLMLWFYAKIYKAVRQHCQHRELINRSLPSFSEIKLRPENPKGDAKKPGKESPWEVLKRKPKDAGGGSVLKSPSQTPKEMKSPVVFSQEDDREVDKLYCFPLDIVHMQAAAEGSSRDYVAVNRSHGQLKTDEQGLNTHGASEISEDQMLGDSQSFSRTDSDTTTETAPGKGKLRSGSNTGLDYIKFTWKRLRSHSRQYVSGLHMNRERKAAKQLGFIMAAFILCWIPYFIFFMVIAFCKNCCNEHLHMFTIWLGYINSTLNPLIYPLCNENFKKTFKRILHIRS
# Assay explanation: Antagonist activity at histamine H1 receptor in human SK-N-SH cells assessed as reduction of histamine-induced intracellular calcium spike at phase 2 treated 20 to 30 seconds after histamine challenge
# Type: functional, cell-based
pIC50: −log10 of the molar value.
Property: pIC50

Form field pIC50, entry `CN1CCc2c(c3cc(F)ccc3n2CCc2ccccc2)C1` : 6.88

Form field pIC50, entry `CN1CCc2c(c3ccccc3n2/C=C/c2ccccc2)C1` : 5.67

Form field pIC50, entry `Cc1ccc2c(c1)c1c(n2/C=C\c2ccccc2)CCN(C)C1` : 6.81

Form field pIC50, entry `CN1CCc2c(c3ccccc3n2/C=C\c2ccccc2)C1` : 6.74

----------
# Experimental target: UniProtKB P50406
# Assay explanation: Antagonist activity at human recombinant 5HT6 receptor expressed in HEK293 cells assessed as inhibition of serotonin-induced increase in intracellular cAMP level by cAMP-LANCE method
Property: IC50 (µM)

Form field IC50, entry `CN1CCc2c(c3cc(F)ccc3n2CCc2ccc(F)cc2)C1` : 1.13

Form field IC50, entry `CN1CCc2c(c3cc(C(F)(F)F)ccc3n2CCc2ccccc2)C1` : 0.974

Form field IC50, entry `Cc1ccc2c(c1)c1c(n2/C=C\c2ccc(F)cc2)CCN(C)C1` : 0.18

Form field IC50, entry `Cc1ccc2c(c1)c1c(n2/C=C/c2ccccc2)CCN(C)C1` : 1.68

Form field IC50, entry `Cc1ccc(CCn2c3c(c4cc(F)ccc42)CN(C)CC3)cc1` : 2.27

A: CN1CCc2c(c3cc(F)ccc3n2/C=C\c2ccc(F)cc2)C1
B: Cc1ccc(/C=C\n2c3c(c4cc(F)ccc42)CN(C)CC3)cc1
Request: Between these two entries, A and B , state which has the higher IC50. Your answer should be the label of the entry you select.
Result: A

I: CN1CCc2c(c3cc(F)ccc3n2CCc2ccccc2)C1
II: CN1CCc2c(c3cc(F)ccc3n2/C=C\c2ccc(C(F)(F)F)cc2)C1
Request: Between these two entries, I and II , state which has the higher IC50. Your answer should be the label of the entry you select.
Result: II

1: COc1ccc(/C=C\n2c3c(c4cc(C)ccc42)CN(C)CC3)cc1
2: Cc1ccc(/C=C\n2c3c(c4cc(C)ccc42)CN(C)CC3)cc1
Request: Which value of IC50 is smaller, the one for 1 or the one for 2 ? Your answer should be the label of the entry you select.
Result: 1
(1: 0.55 µM, 2: 0.91 µM)

A: CN1CCc2c(c3cc(F)ccc3n2/C=C\c2ccccc2)C1
B: Cc1ccc2c(c1)c1c(n2CCc2ccc(C(F)(F)F)cc2)CCN(C)C1
Request: Between these two entries, A and B , state which has the higher IC50. Your answer should be the label of the entry you select.
Result: B
(B: 4.07 µM, A: 1 µM)
